I'd be grateful if you could share measured pIC50 for these entries.
system: 134 cancer cell lines; experiment: Cell viability assay (ATPlite, 72 hours), IC50 on cancer cell line panel; conditions: Homo sapiens, LNCaP-Clone-FGC, read-out: IC50 in cell proliferation assay, LNCaP clone FGC cell line
// pIC50 here means minus log10 of the molar concentration (mol/L)

[Q] Requested field: pIC50. Item: CN1CCN(c2ccc(C(=O)Nc3n[nH]c4ccc(Cc5cc(F)cc(F)c5)cc34)c(NC3CCOCC3)c2)CC1
[A] 4.96

[Q] Next up: Cc1cc(Nc2ncnc3ccc(NC4=NC(C)(C)CO4)cc23)ccc1Oc1ccn2ncnc2c1
[A] 4.66

[Q] And for Cc1cc(Nc2ncc(Cl)c(Nc3ccccc3S(=O)(=O)C(C)C)n2)c(OC(C)C)cc1C1CCNCC1 ?
[A] 5.43

[Q] Follow-up item: COc1cc2ncnc(Nc3ccc(F)c(Cl)c3)c2cc1NC(=O)/C=C/CN1CCCCC1
[A] 5.10

###

biological target: panel of 255 wild-type kinases (Homo sapiens); assay: Kinase panel profiling at 1 µmol/L (MSA or IMAP), percentage inhibition; format: biochemical; conditions: kinase PLK1; 1 µmol/L single concentration; read-out: %-inhibition at 1 µmol/L, PLK1
Consider the following compounds; for each one, report its inhibition at 1 µM.
Number in %, nothing else.

[Q] # lookup: inhibition at 1 µM of C=CC(=O)N1CCC([C@@H]2CCNc3c(C(N)=O)c(-c4ccc(Oc5ccccc5)cc4)nn32)CC1 [zanubrutinib]
[A] -0.741

[Q] Moving on to CCc1nc(C(N)=O)c(Nc2ccc(N3CCC(N4CCN(C)CC4)CC3)c(OC)c2)nc1NC1CCOCC1 [gilteritinib]
[A] 7.52

[Q] Let us now turn to C[C@H]1Oc2cc(cnc2N)-c2c(nn(C)c2C#N)CN(C)C(=O)c2ccc(F)cc21 [lorlatinib]
[A] 2.12

[Q] Let us now turn to O=C(Nc1cnn2ccc(N3CCC[C@@H]3c3cc(F)ccc3F)nc12)N1CC[C@H](O)C1 [larotrectinib]
[A] -1.17

[Q] Same thing, different compound: CN1CCN(c2ccc(C(=O)Nc3n[nH]c4ccc(Cc5cc(F)cc(F)c5)cc34)c(NC3CCOCC3)c2)CC1 [entrectinib]
[A] 0.212

[Q] Same read-out for C[C@H](Nc1ncnc2nc[nH]c12)c1cc2cccc(Cl)c2c(=O)n1-c1ccccc1 [duvelisib] ?
[A] 0.784

[Q] And FC(F)(F)c1ccc(CNc2ccc(Cc3c[nH]c4ncc(Cl)cc34)cn2)cn1 [pexidartinib] ?
[A] 6.33

[Q] And for Cc1nc(NC(=O)N2CCC[C@H]2C(N)=O)sc1-c1ccnc(C(C)(C)C(F)(F)F)c1 [alpelisib] ?
[A] 0.0286

###

molecular target: UniProtKB P00519; assay: Kinase panel profiling at 1 µmol/L (MSA or IMAP), percentage inhibition; assay type: biochemical; conditions: ABL kinase assay; 1 µmol/L single concentration; read-out: %-inhibition ABL
Sequence (P00519 whole entry): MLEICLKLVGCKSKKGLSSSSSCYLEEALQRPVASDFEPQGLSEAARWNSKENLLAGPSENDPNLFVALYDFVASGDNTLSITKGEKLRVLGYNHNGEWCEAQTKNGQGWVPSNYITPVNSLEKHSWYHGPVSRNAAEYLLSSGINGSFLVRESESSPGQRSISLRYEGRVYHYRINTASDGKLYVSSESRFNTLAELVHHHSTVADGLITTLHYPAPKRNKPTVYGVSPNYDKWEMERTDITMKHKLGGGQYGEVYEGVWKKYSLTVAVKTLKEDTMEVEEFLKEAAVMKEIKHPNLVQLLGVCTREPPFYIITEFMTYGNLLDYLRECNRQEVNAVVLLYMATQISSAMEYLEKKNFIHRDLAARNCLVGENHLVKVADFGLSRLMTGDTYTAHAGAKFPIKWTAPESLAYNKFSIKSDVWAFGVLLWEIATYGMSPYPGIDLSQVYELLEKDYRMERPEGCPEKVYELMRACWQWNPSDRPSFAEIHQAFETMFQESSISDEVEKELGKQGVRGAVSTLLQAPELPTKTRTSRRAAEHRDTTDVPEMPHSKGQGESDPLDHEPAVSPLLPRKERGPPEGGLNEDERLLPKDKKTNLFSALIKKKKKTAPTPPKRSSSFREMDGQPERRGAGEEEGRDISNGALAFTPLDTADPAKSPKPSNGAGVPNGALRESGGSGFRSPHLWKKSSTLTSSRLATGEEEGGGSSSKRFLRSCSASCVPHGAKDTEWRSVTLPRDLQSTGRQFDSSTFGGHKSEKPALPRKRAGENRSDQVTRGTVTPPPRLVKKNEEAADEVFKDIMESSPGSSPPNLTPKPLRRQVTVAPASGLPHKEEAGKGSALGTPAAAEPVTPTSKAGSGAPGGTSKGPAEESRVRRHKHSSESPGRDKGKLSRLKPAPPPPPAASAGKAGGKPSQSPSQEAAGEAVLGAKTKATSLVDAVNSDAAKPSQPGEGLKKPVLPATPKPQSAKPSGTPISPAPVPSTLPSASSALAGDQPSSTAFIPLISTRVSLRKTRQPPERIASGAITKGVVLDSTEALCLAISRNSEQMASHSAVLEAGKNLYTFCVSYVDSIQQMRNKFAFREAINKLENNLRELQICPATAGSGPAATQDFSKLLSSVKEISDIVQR
REPORTED ENDPOINT: inhibition at 1 µM

[Q] Dear colleague, I am looking for the recorded inhibition at 1 µM of the following compound: COc1ccc(CN2C3CC2CN(c2ccc(-c4cc(OCC(C)(C)O)cn5ncc(C#N)c45)cn2)C3)cn1
[A] 16%

[Q] Could you do the same for Cc1nc(NC(=O)N2CCC[C@H]2C(N)=O)sc1-c1ccnc(C(C)(C)C(F)(F)F)c1 , please?
[A] 16%

[Q] Similarly, CCc1nc(C(N)=O)c(Nc2ccc(N3CCC(N4CCN(C)CC4)CC3)c(OC)c2)nc1NC1CCOCC1 ?
[A] 40%

[Q] Now consider CO[C@]1(C(=O)N[C@@H](C)c2ccc(-n3cc(F)cn3)nc2)CC[C@H](c2nc(C)cc(Nc3cc(C)[nH]n3)n2)CC1 and answer again.
[A] 37%

[Q] Try the compound C=CC(=O)N1CCC([C@@H]2CCNc3c(C(N)=O)c(-c4ccc(Oc5ccccc5)cc4)nn32)CC1
[A] -4.52%

[Q] Check FC(F)(F)c1ccc(CNc2ccc(Cc3c[nH]c4ncc(Cl)cc34)cn2)cn1 too.
[A] 0.064%

[Q] // next record C[C@H](Nc1ncnc2nc[nH]c12)c1cc2cccc(Cl)c2c(=O)n1-c1ccccc1
[A] -2%

[Q] Please do the same for CCn1c(=O)c(-c2cc(NC(=O)Nc3ccccc3)c(F)cc2Br)cc2cnc(NC)cc21 as well.
[A] 18%

[Q] Lookup Cn1cnc2c(F)c(Nc3ccc(Br)cc3Cl)c(C(=O)NOCCO)cc21
[A] -6.58%

[Q] Now the compound Cn1cc(-c2cc3c(N4CCN(c5ncc([C@@](C)(N)c6ccc(F)cc6)cn5)CC4)ncnn3c2)cn1
[A] 57%

[Q] Please give the result for CCN1CCN(c2ccc(Nc3cc(N(C)C(=O)Nc4c(Cl)c(OC)cc(OC)c4Cl)ncn3)cc2)CC1 too.
[A] 10%

[Q] Further, for CCN1C(=O)N(c2c(F)c(OC)cc(OC)c2F)Cc2cnc3[nH]c(CN4CCOCC4)cc3c21 ?
[A] 10%

[Q] Another compound: CN1CCN(c2ccc(C(=O)Nc3n[nH]c4ccc(Cc5cc(F)cc(F)c5)cc34)c(NC3CCOCC3)c2)CC1
[A] 77%

[Q] Now consider Cc1cc(Nc2ncnc3ccc(NC4=NC(C)(C)CO4)cc23)ccc1Oc1ccn2ncnc2c1 .
[A] -3%

[Q] Next entry: COC(=O)N[C@@H](C)CNc1nccc(-c2cn(C(C)C)nc2-c2cc(Cl)cc(NS(C)(=O)=O)c2F)n1
[A] -5.41%

###

tested on: 134 cancer cell lines; assay: Cell viability assay (ATPlite, 72 hours), IC50 on cancer cell line panel; settings: Homo sapiens, 769-P, read-out: IC50 in cell proliferation assay, cell line 769-P
IC50 strictly less than 1 µM = class 1. Otherwise class 0.

[Q] Below 1 µM on IC50? Entry COc1ccc(CN2C3CC2CN(c2ccc(-c4cc(OCC(C)(C)O)cn5ncc(C#N)c45)cn2)C3)cn1
[A] class 0

[Q] Entry to check: CCc1nc(C(N)=O)c(Nc2ccc(N3CCC(N4CCN(C)CC4)CC3)c(OC)c2)nc1NC1CCOCC1
[A] class 0

[Q] Quick one: CO[C@]1(C(=O)N[C@@H](C)c2ccc(-n3cc(F)cn3)nc2)CC[C@H](c2nc(C)cc(Nc3cc(C)[nH]n3)n2)CC1
[A] class 0

[Q] Try this compound too: O=C(Nc1cnn2ccc(N3CCC[C@@H]3c3cc(F)ccc3F)nc12)N1CC[C@H](O)C1
[A] class 0

[Q] Field entry: CC(C)(C)c1nc(-c2cccc(NS(=O)(=O)c3c(F)cccc3F)c2F)c(-c2ccnc(N)n2)s1
[A] class 0

[Q] What about CC(=O)Nc1cccc(-n2c(=O)n(C3CC3)c(=O)c3c(Nc4ccc(I)cc4F)n(C)c(=O)c(C)c32)c1 ?
[A] class 1

###

biological target: panel of 255 wild-type kinases (Homo sapiens, UniProt P53779); assay: Kinase panel profiling at 1 µmol/L (MSA or IMAP), percentage inhibition; assay type: biochemical; settings: kinase JNK3; 1 µmol/L single concentration; read-out: %-inhibition at 1 µmol/L, JNK3
Sequence (P53779 whole entry): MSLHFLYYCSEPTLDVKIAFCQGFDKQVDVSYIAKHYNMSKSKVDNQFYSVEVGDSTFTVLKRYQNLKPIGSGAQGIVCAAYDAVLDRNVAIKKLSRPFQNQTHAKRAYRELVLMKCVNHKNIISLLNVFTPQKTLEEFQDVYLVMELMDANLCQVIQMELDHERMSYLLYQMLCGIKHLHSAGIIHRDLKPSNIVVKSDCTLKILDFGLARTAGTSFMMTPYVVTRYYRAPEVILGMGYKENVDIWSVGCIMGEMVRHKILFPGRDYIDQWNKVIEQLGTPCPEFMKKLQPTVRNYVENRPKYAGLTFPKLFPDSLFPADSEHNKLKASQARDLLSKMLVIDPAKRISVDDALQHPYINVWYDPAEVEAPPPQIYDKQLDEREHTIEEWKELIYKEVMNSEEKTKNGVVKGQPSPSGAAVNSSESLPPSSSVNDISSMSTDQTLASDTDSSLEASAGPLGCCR
REPORTED ENDPOINT: inhibition at 1 µM (%)
Answer format: numeric, % implied, no suffix.

[Q] Fill blank: measured inhibition at 1 µM of the molecule CCc1nc(C(N)=O)c(Nc2ccc(N3CCC(N4CCN(C)CC4)CC3)c(OC)c2)nc1NC1CCOCC1 is ____.
[A] 52

[Q] Field entry: CCN1C(=O)N(c2c(F)c(OC)cc(OC)c2F)Cc2cnc3[nH]c(CN4CCOCC4)cc3c21
[A] -7

[Q] And C=CC(=O)N1CCC([C@@H]2CCNc3c(C(N)=O)c(-c4ccc(Oc5ccccc5)cc4)nn32)CC1 ?
[A] -8

[Q] Follow-up item: Cn1cc(-c2cc3c(N4CCN(c5ncc([C@@](C)(N)c6ccc(F)cc6)cn5)CC4)ncnn3c2)cn1
[A] 2.14

[Q] Next molecule up: COC(=O)N[C@@H](C)CNc1nccc(-c2cn(C(C)C)nc2-c2cc(Cl)cc(NS(C)(=O)=O)c2F)n1
[A] 59

[Q] Try this molecule too: C[C@H]1Oc2cc(cnc2N)-c2c(nn(C)c2C#N)CN(C)C(=O)c2ccc(F)cc21
[A] -8.55

[Q] Thanks! And CCN1CCN(c2ccc(Nc3cc(N(C)C(=O)Nc4c(Cl)c(OC)cc(OC)c4Cl)ncn3)cc2)CC1 ?
[A] 4

###

Kindly supply the reported IC50 values for the records listed here.
test system: 134 cancer cell lines; experiment: Cell viability assay (ATPlite, 72 hours), IC50 on cancer cell line panel; conditions: Homo sapiens, A-427, read-out: IC50 in cell proliferation assay
Please give a number only; it is taken to be in µM.

[Q] Report IC50 for COc1cc(N2CCC(N3CCN(C)CC3)CC2)ccc1Nc1ncc(Cl)c(Nc2ccccc2P(C)(C)=O)n1 [brigatinib] please.
[A] 0.448

[Q] Cool, now C=CC(=O)N1CCC([C@@H]2CCNc3c(C(N)=O)c(-c4ccc(Oc5ccccc5)cc4)nn32)CC1 [zanubrutinib]
[A] 8.55
